assay: chemical genetic growth profiling, strain panel (AID 1159580);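 further: tested at 20 µM; growth read once vehicle control cultures reached saturation at 30 °C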; conditions: S. cerevisiae deletion strains, growth OD, locus YER155C, strain BEM2 (second series), stronger effect = lower value
Hit rate of the full screen: of about 5,500 compounds, about 2,000 (36%) were called active. Inconclusive results (about 18%) are left out. The list shows a part of the results.
Friendly reminder: normalized growth below 1 is T, at or above is F.

Field: example entries. Status: answers known.
1) CN(C)[C@@H]1C(=O)C(C(N)=O)=C(O)[C@@]2(O)C(=O)C3=C(O)c4c(O)ccc(Cl)c4[C@@](C)(O)[C@H]3C[C@@H]12 :: T
2) CC(C)c1ccc2c(c1)CCC1C(C)(C(N)=O)CCCC21C (stereo not given) :: T
3) CC(C)=CCCC(C)[C@@H]1CC[C@]2(C)C3=C(CC[C@@]12C)C1(C)CC[C@H](O)C(C)(C)C1CC3 (stereo not given in full) :: F

Find out if reported normalized growth for CC(C)c1ccc2c(c1)CCC1[C@](C)(CN)CCC[C@]21C (stereo not given in full) is less than 1
T

And the next one, COc1cc(C/C=C/c2ccccc2)c(OC)cc1O ?
T
